Measured log10(MIC), listed per entry for reference.
Test system: Salmonella typhi
Assay: Antibacterial activity against Bacillus typhi after 24 hrs by NCCLS two fold broth microdilution method
Assay type: functional, Salmonella enterica subsp. enterica serovar Typhi
Settings: Salmonella enterica
Plainly stated, the numbers are log10 of MIC given in µg/mL.

Reference set, count: 5
1. CCCn1c(CS(=O)(=O)c2ccc(N)cc2)nc2ccccc21 ... 1.51
2. CCCCCCCCCCCCn1c(CS(=O)(=O)c2ccc(N)cc2)nc2ccccc21 ... 2.71
3. Nc1ccc(S(=O)(=O)Cc2nc3ccccc3n2Cc2cccc(Cl)c2)cc1 ... 2.71
4. Nc1ccc(S(=O)(=O)Cc2nc3ccccc3n2CCCCCn2c3ccccc3c3ccccc32)cc1 ... 1.81
5. CC(=O)Nc1ccc(S(=O)(=O)Cc2nc3ccccc3n2Cc2ccc(Cl)cc2)cc1 ... 1.81

Please tell me: log10(MIC) of CCCCCCn1c(CS(=O)(=O)c2ccc(N)cc2)nc2ccccc21 , system Salmonella typhi? 2.71

Please tell me: log10(MIC) of Nc1ccc(S(=O)(=O)Cc2nc3ccccc3n2Cc2ccccc2F)cc1 , system Salmonella typhi? 1.20

Please tell me: log10(MIC) of CC(=O)Nc1ccc(S(=O)(=O)Cc2nc3ccccc3n2Cc2ccccc2Cl)cc1 , system Salmonella typhi? 1.20

Please tell me: log10(MIC) of CCn1cc(C(=O)O)c(=O)c2cc(F)c(N3CCNCC3)cc21 , system Salmonella typhi? 0.00

Please tell me: log10(MIC) of CCCCCCCCCCn1c(CS(=O)(=O)c2ccc(NC(C)=O)cc2)nc2ccccc21 , system Salmonella typhi? 2.71

Please tell me: log10(MIC) of CCCn1c(CS(=O)(=O)c2ccc(NC(C)=O)cc2)nc2ccccc21 , system Salmonella typhi? 1.51

Please tell me: log10(MIC) of CC(=O)Nc1ccc(S(=O)(=O)Cc2nc3ccccc3n2CCCCCn2c3ccccc3c3ccccc32)cc1 , system Salmonella typhi? 1.81

Please tell me: log10(MIC) of Nc1ccc(S(=O)(=O)Cc2nc3ccccc3n2Cc2cccc(F)c2)cc1 , system Salmonella typhi? 2.71

Please tell me: log10(MIC) of CCCCCCCn1c(CS(=O)(=O)c2ccc(NC(C)=O)cc2)nc2ccccc21 , system Salmonella typhi? 2.71

Please tell me: log10(MIC) of CCCCCCCCCCCCn1c(CS(=O)(=O)c2ccc(NC(C)=O)cc2)nc2ccccc21 , system Salmonella typhi? 2.71

Please tell me: log10(MIC) of CCCCCn1c(CS(=O)(=O)c2ccc(N)cc2)nc2ccccc21 , system Salmonella typhi? 2.71

Please tell me: log10(MIC) of CC(=O)Nc1ccc(S(=O)(=O)Cc2nc3ccccc3[nH]2)cc1 , system Salmonella typhi? 2.11

Please tell me: log10(MIC) of CCn1c(CS(=O)(=O)c2ccc(NC(C)=O)cc2)nc2ccccc21 , system Salmonella typhi? 1.81

Please tell me: log10(MIC) of O=C(N[C@H](CO)[C@H](O)c1ccc([N+](=O)[O-])cc1)C(Cl)Cl , system Salmonella typhi? 1.51

Please tell me: log10(MIC) of CCn1c(CS(=O)(=O)c2ccc(N)cc2)nc2ccccc21 , system Salmonella typhi? 2.11

Please tell me: log10(MIC) of CC(=O)Nc1ccc(S(=O)(=O)Cc2nc3ccccc3n2Cc2ccc(Cl)c(Cl)c2)cc1 , system Salmonella typhi? 2.71
